meta.source: patent JPH07291935A

test system: norepinephrine (NE) uptake [ノルエピネフリン(NE)の取り込み]; test: norepinephrine (NE) uptake inhibition; format: biochemical; details: rat cerebral cortex, 3H-NE as substrate
pIC50: −log10 of the molar value.
Classify by measured pIC50: Fulfilled if it is equal to or exceeds 7, Not fulfilled if it is smaller.

input: Textbook exercise: given the entry COc1ccc2c(c1)CCC1(CCCCN1CCN1CCN(c3ccc(F)cc3)CC1)C2 (stereo not drawn) , state whether its pIC50 is greater than or equal to 7.
output: Not fulfilled

input: Textbook exercise: given the entry CCCN1CCCCC12CCc1cc(OCc3ccccc3C#N)ccc1C2 (stereo not drawn) , state whether its pIC50 is greater than or equal to 7.
output: Fulfilled

input: Textbook exercise: given the entry CCCN1CCCCC12CCc1cc(OCc3cccc(Cl)c3)ccc1C2 (stereo not drawn) , state whether its pIC50 is greater than or equal to 7.
output: Fulfilled

input: Textbook exercise: given the entry CCCN1CCCCC12CCc1cc(OCc3ccc(Cl)cc3)ccc1C2 (stereo not drawn) , state whether its pIC50 is greater than or equal to 7.
output: Fulfilled

input: Textbook exercise: given the entry COc1ccc2c(c1)CCC1(CCCCN1CCCC1CCN(Cc3ccccc3)CC1)C2 (stereo not drawn) , state whether its pIC50 is greater than or equal to 7.
output: Not fulfilled

input: Textbook exercise: given the entry `COc1ccc2c(c1)CC[C@@]1(CCCCN1CCN1CCN(c3cccc(C(F)(F)F)c3)CC1)C2` , state whether its pIC50 is greater than or equal to 7.
output: Not fulfilled
